The following binders are shown together with reported stoichiometry N values.
# measuredTarget: T1, Bre1-LR (Bre1 residues 227–700, LBD and RING domains), 6× histidine tag (budding yeast, UniProt Q07457 227-700)
# T1 construct: two Bre1 polypeptides form the dimeric coiled-coils of the LBD in the crystal structure; also called WT; source: E. coli BL21 Rosetta (DE3), purified (Ni-NTA, heparin, gel filtration)
# T1 sequence (looked up): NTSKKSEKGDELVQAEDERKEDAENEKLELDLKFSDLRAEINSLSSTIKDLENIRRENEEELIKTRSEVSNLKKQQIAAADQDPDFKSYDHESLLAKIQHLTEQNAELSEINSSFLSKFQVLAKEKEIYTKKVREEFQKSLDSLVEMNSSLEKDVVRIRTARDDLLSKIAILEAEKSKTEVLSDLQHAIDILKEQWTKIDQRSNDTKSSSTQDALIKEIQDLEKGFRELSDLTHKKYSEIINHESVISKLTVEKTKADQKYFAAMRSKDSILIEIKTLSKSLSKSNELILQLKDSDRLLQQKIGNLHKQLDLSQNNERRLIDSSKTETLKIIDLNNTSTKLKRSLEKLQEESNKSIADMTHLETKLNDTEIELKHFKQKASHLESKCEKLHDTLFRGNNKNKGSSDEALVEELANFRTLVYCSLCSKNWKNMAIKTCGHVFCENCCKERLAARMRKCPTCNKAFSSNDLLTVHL
# assayExplanation: ITC; Lge1-CT (50–60 μM) injected into Bre1-LR (15 μM); 25°C, 20 mM TRIS (pH 7.5), 200 mM sodium chloride
# conditionSet: both partners purified
Field format: numeric only.

Example results:
Lge1-CT K313E/H314E (domain or fragment, budding yeast, UniProt Q02796 261-332, looked up, Lge1, budding yeast, residues 261-332; source: E. coli BL21 Rosetta (DE3): cleared cell extract on chitin resin (pull-down); purified (chitin, heparin, gel filtration) for ITC and SPR) KNVKKTNNTESECEKAREVFKESDSIDSALEELNLKINSNELELRLLNNQCDEEALNIQLTQEKLDSLLLMQ	0.392
Lge1-CT L316N (domain or fragment, budding yeast, UniProt Q02796 261-332, looked up, Lge1, budding yeast, residues 261-332; source: E. coli BL21 Rosetta (DE3): cleared cell extract on chitin resin (pull-down); purified (chitin, heparin, gel filtration) for ITC and SPR) KNVKKTNNTESECEKAREVFKESDSIDSALEELNLKINSNELELRLLNNQCDKHANNIQLTQEKLDSLLLMQ	0.293

Okay, now this binder:
Exercise: Report stoichiometry N for Lge1-CT E301K/R305E (domain or fragment, budding yeast, UniProt Q02796 261-332, looked up, Lge1, budding yeast, residues 261-332; source: E. coli BL21 Rosetta (DE3): cleared cell extract on chitin resin (pull-down); purified (chitin, heparin, gel filtration) for ITC and SPR) KNVKKTNNTESECEKAREVFKESDSIDSALEELNLKINSNKLELELLNNQCDKHALNIQLTQEKLDSLLLMQ please.
Key: 0.585

Value source: paper PMC12802937
